test: soluble on expression in E. coli; label from the status in PepcDB or PDB records
MEASUREMENT_NAME: soluble on expression in E. coli

AHHHHHHGSTQKKLIEYTNPSTSRRKITRIPIDSPDYPPLLKQIKDPPKIIYAIGNVRLLNKPAVAIVGTRQPSERGEYYAEKVAEFYAKQGFVIVSGLALGIDSIVIKTALKTGAHVIGVLPSPVNDIVPKSNEKLAEKIIRSGGLLISELPEGTKPKKYHFVRRNRIISGISFAVVVIESELKDGTMHTVKFAKQQRRIILVTNLPASGNAKLKNEGFPILDF    soluble
SEEVEAEEPQEFSHRQRLKAAVHYTVGCLCQEVTLNKQVNFSKQTIAAISEVTFRQCENFAKDLEMFARWVEKLAV    soluble
MPAGHEDIGLPQDDEAFMRYRERRIQELCGKVEEVVSEKELIEKTKSLRMIVHFYKPEFKRCKTMDKGLEEVKDCFPGIRFYRVNAEICPVVARKLEIRVLPFLGFFKDGYFVDQVVGFEKLGGDSVEPEVLKKRILDSNIFKPISSI    not soluble
MAHHHHHHMKAVSIRQVSAIIILDNNGKRIAVKYYNDQAPLKGENKLVPKNTNKDLVSNAFENTYNNLRTVEDQKLFESDITEKARKLGGDSSETEVLVLNKFTILYLLINDVSIYIVGEESDNEIILHEIMQTVQQCLDNVTNNQIGKKQLLDKLDSIYLILDEIADSGIIMETNPNVIINRLYMHESDLQEHTPLNQAISSAKENIIRSLLSGT    not soluble

---

assay: soluble on expression in E. coli; label from the status in PepcDB or PDB records
MEASUREMENT_NAME: soluble on expression in E. coli

MGSDKIHHHHHHMRVTADEGLYGEEATQGTEFRFHCETLFSRSSLHRFEIGLHRHSAFLQILYIFGGEGDALLEGRIEPIRPPVAIIVPPGFEHGFRFSRDIGGVIVTMLPGALPASVQALLLRNFQQPVLLRLRDFAEKDGLRSGFERISAEYEAREIGRDAMIEGQLATVVTLLSRAARPLLETSGEGLAEQRFERLLSLIARHIREPQKAGFYAGKLGLSETHLNRLVRSVSGLSLQRLIAKRQIEIAQQELIFTVSSVQMIAEGLGFADPAYFNRFFKRETGMTPRAWRLAEQRKMGDTGARLTPPQTSILASSR    not soluble
RVKGTFNKYSQLRSMSGMNGAQVAQRVLQAAGIYDVQVRHVSGSLTDHYDPRTKTVNLSDPVYNATSVAALGVAAHECGHAIQHAKSYAPLSIRS    not soluble
MGSDKIHHHHHHMDKLDNYIVTILEKSITPRKSPFLHTILAGRRTGQAVQDAHLFQMQHLFGLVPNLKLNYLETRLKELMRQGIITVTENGYTVKQKPNFSFEMSFPSFHGFAFQQQVFAFFAHLRLAVQVVSNKHHAEKYYLPVIRDKKVQQFIKIWLQNQQQEDLADRLYIELIKWFNSLAVSRPEFLVERFSGGKLMGYTTEQIATKYQVEKWDVYFEVLHELHRLIAAIKESEEEWPLLASLIPNELMSLTSSAIKTYTLWAKGMDLEMIERIRNLKTSTIQDHFVEIRATLKEAQVPYLPEEELIQSINSRNWHLLRDIKAAFPDLDYYQIRLAVVSKEDEQ    not soluble

---

test: soluble on expression in E. coli; label from the status in PepcDB or PDB records
MEASUREMENT_NAME: soluble on expression in E. coli

MGSDKIHHHHHHMSKNIKTPTNQKVLTNVAVVRMKKTGKRFEIACYKNKVVNWRNKSEKDIDEVLQTHTVFSNVSKGQLSKKEELIAAFGIEDQLEIYSRQRRLASVGKRASGGFRSIAERGSFFLLKNVSQLIASMVVNPETKRPVPPSVIDKALQEMHFSLKPNRSSKQQALDAIPKLRETLKIERAKMKIRVAIPTKEAKSVHTKLKTLFSDVEVDDWQDGSLEMVGLIEPGSFRALDDLVRNETKGHGRLEILSLKDVVEGELQIS    not soluble
MGSIISRTIPGQGHGNQYYPGVQWDVRDSAWRYVTILDLPFSLVFDTLLLPIDIHHGPYELEHHHHHH    not soluble

Hello, the source for this data is the DeepSol protein solubility set, in case you need it.
